assay_target: Serine/threonine-protein phosphatase (Candida dubliniensis (strain CD36 / CBS 7987 / NCPF 3949 / NRRLY-17841) (Yeast), UniProt B9W6M3)
Sequence (B9W6M3 whole entry): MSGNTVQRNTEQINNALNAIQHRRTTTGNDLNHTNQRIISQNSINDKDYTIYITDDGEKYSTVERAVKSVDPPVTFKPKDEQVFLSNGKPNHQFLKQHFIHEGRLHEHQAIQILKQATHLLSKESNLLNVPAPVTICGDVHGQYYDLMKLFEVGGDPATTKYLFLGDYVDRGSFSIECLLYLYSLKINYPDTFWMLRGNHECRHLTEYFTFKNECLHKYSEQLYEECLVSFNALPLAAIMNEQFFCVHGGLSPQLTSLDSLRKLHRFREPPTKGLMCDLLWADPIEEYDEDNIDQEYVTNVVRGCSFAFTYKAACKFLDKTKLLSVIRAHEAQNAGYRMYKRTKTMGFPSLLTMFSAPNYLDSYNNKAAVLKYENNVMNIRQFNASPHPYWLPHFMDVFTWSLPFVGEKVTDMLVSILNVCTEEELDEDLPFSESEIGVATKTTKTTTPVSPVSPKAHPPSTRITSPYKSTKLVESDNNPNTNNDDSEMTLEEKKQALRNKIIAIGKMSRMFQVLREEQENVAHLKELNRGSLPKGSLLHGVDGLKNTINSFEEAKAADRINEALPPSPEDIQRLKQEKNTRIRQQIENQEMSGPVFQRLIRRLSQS
protocol_text: blockers of CaCl2-induced CDRE-lacZ signaling – S. cerevisiae, luminescence, secondary, dose response (AID 2388);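 also: yeast reporter cells carrying a calcineurin-responsive lacZ construct stimulated with calcium chloride; luminescent beta-galactosidase reporter signal in whole cells rather than isolated phosphatase activity; potency for inhibition where a drop in reporter signal means calcineurin blockade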
Format: functional, cell-based
Active and inactive are the calls of the source. Rule as the data show it: actives have a measured EC50 and inactives only a lower limit.
Bench note: report the call from active, inactive

Use the examples below as a reference point.
CC1=C(CC[C@@H](C)CO)O[C@H]2C[C@H]3[C@@H]4CC[C@H]5C[C@@H](O)CC[C@]5(C)[C@H]4CC(=O)[C@]3(C)[C@@H]12	inactive
O=C(/C(=N/N=C/c1ccc(O)c(O)c1O)c1ccccc1)c1ccccc1	inactive
CC(C)(C)c1ccc(Cc2nnc(S)nc2O)cc1	active

Read the next record carefully.
q: Any idea what this test logged for O=C(NC(Nc1nc2ccc([N+](=O)[O-])cc2s1)(C(F)(F)F)C(F)(F)F)c1ccccc1Cl ?
a: inactive
